Biological target: MARV NP (amino acids 19–370) (Lake Victoria marburgvirus)
Sequence (P27588 19-370 limits assumed): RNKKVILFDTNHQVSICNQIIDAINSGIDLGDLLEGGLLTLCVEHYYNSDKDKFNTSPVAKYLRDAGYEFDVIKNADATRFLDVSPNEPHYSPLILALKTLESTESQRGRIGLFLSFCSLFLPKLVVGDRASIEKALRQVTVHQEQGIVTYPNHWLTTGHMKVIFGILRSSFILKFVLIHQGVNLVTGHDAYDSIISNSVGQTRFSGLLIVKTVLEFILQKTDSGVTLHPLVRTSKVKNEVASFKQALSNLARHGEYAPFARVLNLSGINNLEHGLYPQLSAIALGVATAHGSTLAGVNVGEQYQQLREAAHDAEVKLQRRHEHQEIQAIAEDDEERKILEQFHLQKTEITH
Format: binding, Marburg virus
Please respond with reported VIP for every item in the list.
Write the value as a bare number.

Form field VIP, entry CC1(C)[C@@H](O[C@H]2O[C@H](C(=O)O)[C@@H](O)[C@H](O)[C@H]2O[C@@H]2O[C@H](C(=O)O)[C@@H](O)[C@H](O)[C@H]2O)CC[C@]2(C)[C@H]3C(=O)C=C4[C@@H]5C[C@@](C)(C(=O)O)CC[C@]5(C)CC[C@@]4(C)[C@]3(C)CC[C@@H]12 : 1.39

Form field VIP, entry O=c1cc(-c2ccc(O)cc2)oc2c([C@@H]3OC[C@H](O)[C@H](O)[C@H]3O)c(O)c([C@@H]3O[C@H](CO)[C@@H](O)[C@H](O)[C@H]3O)c(O)c12 [GC3, Schaftoside] : 1.60

Form field VIP, entry O=C1C[C@@H](c2ccc(O)cc2)Oc2cc(O)ccc21 : 0.65

Form field VIP, entry COc1ccc(-c2coc3cc(O)ccc3c2=O)cc1O : 0.16
